Molecular target: T1, hVEGF-A K48A (human, UniProt P15692 34-135)
T1 chain: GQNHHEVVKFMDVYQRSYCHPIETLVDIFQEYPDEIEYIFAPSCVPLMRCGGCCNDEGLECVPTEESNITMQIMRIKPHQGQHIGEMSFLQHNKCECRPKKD
Test: SPR
parameter measured: pKd
For clarity, pKd is expressed as the negative log10 of concentration in mol/L.

Incoming: Could you tell me which pKd is on file for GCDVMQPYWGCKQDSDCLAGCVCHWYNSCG (designed binder, also called EM63) [VEGF_CKP9.63] ?
Outgoing: 7.55

Incoming: Item: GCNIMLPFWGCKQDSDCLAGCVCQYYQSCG (designed binder, also called EM54) [VEGF_CKP9.54]
Outgoing: 7.66

Incoming: Subsequent entry: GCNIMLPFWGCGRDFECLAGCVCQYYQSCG (designed binder) [VEGF_CKP9.54.90]
Outgoing: 9.72

Please examine the following record next.
Incoming: For the binder shown here, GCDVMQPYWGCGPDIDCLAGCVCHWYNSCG (designed binder, also called L2.9.63.12) [VEGF_CKP9.63.12] , give the reported pKd.
Outgoing: 9.48
